Every entry's value here was drawn from PubChem BioAssay AID2315.

assayText: A qHTS for Small Molecule Inhibitors of Shiga Toxin; also: 0% is about no effect
testSettings: Vero cells, Shiga toxin protein synthesis inhibition reporter; at 38.7 µM, hits give high values
Hit rate of the full screen: of about 290,000 compounds, about 27,000 (9.3%) were called active. The sample as a whole holds a higher share of actives than the screen did.
Provide the recorded inhibition for the entries that follow.
# value in %; strip the unit string

[ask] # inhibition lookup, item `Cc1ccc(NC(=S)NC(=O)/C=C/c2ccc(Cl)cc2)cc1`
[reply] 13

[ask] # inhibition lookup, item `COc1ccc(CNC(=O)[C@H](Cc2c[nH]c3ccccc23)NC(C)=O)cc1OC`
[reply] -6.62

[ask] # inhibition lookup, item `NC(=O)COc1ccccc1C(=O)NC12CC3CC(CC(C3)C1)C2`
[reply] -4.22

[ask] # inhibition lookup, item `NC(=O)COc1ccc(C23CC4CC(CC(C4)C2)C3)cc1`
[reply] 58.8

[ask] # inhibition lookup, item CCCCC(CCC(=O)Nc1ccc(C(=O)OCC)cc1)C(=O)O (stereo not drawn)
[reply] -3.77

[ask] # inhibition lookup, item `N/C(=N\OC(=O)Nc1ccc(Cl)c(Cl)c1)c1ncc(C(F)(F)F)cc1Cl`
[reply] -18.1

[ask] # inhibition lookup, item `O=C(NCCc1ccccc1)C1CCN(S(=O)(=O)c2ccc(Br)s2)CC1`
[reply] 9.64

[ask] # inhibition lookup, item COC(=O)c1cc(C(=O)NC(C)C2CC3CCC2C3)cc([N+](=O)[O-])c1 (stereo not drawn)
[reply] -13

[ask] # inhibition lookup, item `O=C(/C=C/c1cccc([N+](=O)[O-])c1)N1CCN(Cc2ccccc2)CC1`
[reply] 12.7

[ask] # inhibition lookup, item `COC(=O)c1c(C)[nH]c(C)c1-c1ccc([N+](=O)[O-])cc1`
[reply] 21.5

[ask] # inhibition lookup, item `CC1CCN(C(=O)CCNC(=O)c2ccccc2)CC1`
[reply] 43.4

[ask] # inhibition lookup, item `CCOc1ccccc1NC(=O)Cc1cccs1`
[reply] -4.91

[ask] # inhibition lookup, item Cc1cc(OC(C)C(=O)NC2CC(C)(C)NC(C)(C)C2)c2c(C)cc(=O)oc2c1 (stereo not drawn)
[reply] -4.82

[ask] # inhibition lookup, item `COC(=O)c1c(C)[nH]c(C(=O)/C=C/c2ccc(Cl)cc2)c1C`
[reply] 54.7

[ask] # inhibition lookup, item `O=C(Cc1cccs1)Nc1ccc([N+](=O)[O-])cc1`
[reply] -6.19

[ask] # inhibition lookup, item `C#CCNc1ccc(C(=O)OCC)cc1`
[reply] 58.3

[ask] # inhibition lookup, item `Cc1ccc(NC(=O)CN2CCc3ccccc3C2)cc1C`
[reply] 17

[ask] # inhibition lookup, item `COCCCNc1nc2ccccc2nc1NS(=O)(=O)c1ccc(F)cc1`
[reply] 2.37

[ask] # inhibition lookup, item `Cc1occc(=O)c1OCc1ccc(F)cc1`
[reply] -2.22

[ask] # inhibition lookup, item `CCOC(=O)N1CCC(N2Cc3cccc(C(=O)Nc4ccc(S(=O)(=O)N(CC)CC)cc4)c3C2=O)CC1`
[reply] -14

[ask] # inhibition lookup, item `O=c1[nH]c(CSc2ccccc2)nc2c1oc1ccccc12`
[reply] 12.7

[ask] # inhibition lookup, item `CC1CCN(C(=O)/C(=C\c2ccccc2F)NC(=O)c2ccccc2)CC1`
[reply] -2.65

[ask] # inhibition lookup, item `CC1CCN(C(=O)/C(=C\c2ccccc2)NC(=O)c2ccccc2)CC1`
[reply] 5.08

###

assayText: A qHTS for Small Molecule Inhibitors of Shiga Toxin; also: 0% is about no effect
testSettings: Vero cells, Shiga toxin protein synthesis inhibition reporter; at 38.7 µM, hits give high values
In all, about 290,000 compounds went through this assay and about 27,000 (9.3%) were called active. What follows is part of a selection rich in actives, with near analogues and random picks from the rest.
measureName: inhibition (%)
# value in %; strip the unit string

[ask] # inhibition lookup, item `O=C(NCCOCc1ccc(Cl)cc1)c1ncn[nH]1`
[reply] 10.4

[ask] # inhibition lookup, item `CC(=O)Nc1ccc(NC(=O)CSc2nnnn2-c2ccccc2F)cc1`
[reply] 61.1

[ask] # inhibition lookup, item `Cc1cc(C(=O)N/N=C/c2ccc(O)c([N+](=O)[O-])c2)c(C)n1-c1ccc(F)cc1`
[reply] 0

[ask] # inhibition lookup, item `COCCNC(=O)COc1ccccc1C`
[reply] -1.68

[ask] # inhibition lookup, item `COc1cc(NC(=O)NCC2CCN(Cc3ccc(C)cc3)CC2)cc(OC)c1OC`
[reply] 19.7

[ask] # inhibition lookup, item `COc1ccc(/C=N/NC(=O)c2ccncc2)cc1CN1CCCc2ccccc21`
[reply] -1.95

[ask] # inhibition lookup, item `CC(=O)Nc1ccc(S(=O)(=O)N(C)c2nc3ccccc3nc2Cl)cc1`
[reply] 21.4

[ask] # inhibition lookup, item `CCN(CC)S(=O)(=O)c1ccc(C)c(NC(=O)COc2ccc(Br)cc2Cl)c1`
[reply] -7.98

[ask] # inhibition lookup, item `COc1ccc(C(=O)/C=C/c2ccc(OC3CSC3)cc2)cc1`
[reply] 2.97

[ask] # inhibition lookup, item `CCOc1ccc(C(=O)Nc2c3c(nn2-c2ccccc2)CS(=O)(=O)C3)cc1`
[reply] -5.21

[ask] # inhibition lookup, item `CCn1nnnc1SCC(=O)Nc1ccc(N(C)C)cc1`
[reply] 44.2

[ask] # inhibition lookup, item COc1ccc(S(=O)(=O)N2CCOC2CNC(=O)C(=O)NCc2ccncc2)cc1OC (stereo unspecified)
[reply] -13.1

[ask] # inhibition lookup, item `CC(=O)Nc1ccc(NC(=S)NC(=O)/C=C/c2ccccc2)cc1`
[reply] 5.78

[ask] # inhibition lookup, item COc1cccc(C(O)Cc2nc3ccccc3n2C)c1OC (stereo unspecified)
[reply] 10.7

[ask] # inhibition lookup, item `Cc1cccc(CN2CCC(n3nccc3NC(=O)c3ccccc3C)CC2)n1`
[reply] -8.84

[ask] # inhibition lookup, item `O=C1CCNCCN1[C@H](CO)Cc1ccccc1`
[reply] -8.58

[ask] # inhibition lookup, item `O=C(CSc1ncnc2c1oc1ccccc12)NC1CCCC1`
[reply] -5.84

[ask] # inhibition lookup, item `Cc1cccc(NC(=O)c2cccnc2Cl)n1`
[reply] 21.6

[ask] # inhibition lookup, item `COc1ccc(NC(=O)CCCC2CCCCC2)c(OC)c1`
[reply] 72.3

[ask] # inhibition lookup, item CN(Cc1ccccc1)C(=O)c1ccc(NC2=NC3CS(=O)(=O)CC3S2)cc1 (stereo unspecified)
[reply] -3

[ask] # inhibition lookup, item Cc1c(S(=O)(=O)N2CC(C)CC(C)C2)c(=O)n(C)c(=O)n1C (stereo unspecified)
[reply] -33.2

[ask] # inhibition lookup, item COc1cc(/C=N\NC(=O)C2C(=O)NCC2c2ccccc2)cc(OC)c1O (stereo unspecified)
[reply] -11.2

[ask] # inhibition lookup, item `Cc1ccc(Nc2nc(-c3ccc(O)cc3O)cs2)nc1`
[reply] 67.2

[ask] # inhibition lookup, item `CC(=O)c1cnc(SCCN2C(=O)c3ccccc3C2=O)nc1C`
[reply] -12.2

[ask] # inhibition lookup, item `O=C(/C=C/Sc1ncn[nH]1)c1ccc(Cl)cc1`
[reply] 32.3

[ask] # inhibition lookup, item `CCOc1cc(/C=C2\SC(N3CCCCC3)=NC2=O)ccc1O`
[reply] 67.1

[ask] # inhibition lookup, item CCC(Oc1ccccc1C)C(=O)Nc1ccc(S(=O)(=O)Nc2cc(C)on2)cc1 (stereo unspecified)
[reply] -4.41

[ask] # inhibition lookup, item COc1ccc(N2CCC(N3CCN(C)C(CCO)C3)CC2)cc1 (stereo unspecified)
[reply] 0.592

[ask] # inhibition lookup, item `O=C(NCCc1ccc(Cl)cc1Cl)c1cc([N+](=O)[O-])c[nH]c1=O`
[reply] -2.76

[ask] # inhibition lookup, item `CC(C)(C)OC(=O)CNC(=O)c1[nH]cnc1C(=O)N[C@@H](Cc1ccccc1)C(=O)OCc1ccccc1`
[reply] 7.26

[ask] # inhibition lookup, item `Cc1ccc(SCCN2C(=O)NC(C)(C)C2=O)cc1`
[reply] 5.57

[ask] # inhibition lookup, item `Cc1ccc(S(=O)(=O)N2CCC(C)CC2)cc1C(=O)NCc1ccccn1`
[reply] 5.07

[ask] # inhibition lookup, item `CN(Cc1ccccc1)C(=O)c1cccc(C(=O)N(C)Cc2ccccc2)c1`
[reply] -2.11

[ask] # inhibition lookup, item `O=C(CCSc1ccccc1)N1CCN(c2ccccc2F)CC1`
[reply] 95.5

[ask] # inhibition lookup, item `OCc1ccc(OCCCOc2cccc3cccnc23)cc1`
[reply] 31.7

[ask] # inhibition lookup, item `CCOc1cc(-c2noc(CCCC(=O)NC3CCCCC3)n2)ccc1OC`
[reply] -9.28

[ask] # inhibition lookup, item `COc1cc(/C=N/NC(=S)Nc2cccnc2)cc(OC)c1O`
[reply] -4.42

[ask] # inhibition lookup, item `O=C(NCC(=O)N1CCN(c2ccccc2F)CC1)c1cccs1`
[reply] 26.2

[ask] # inhibition lookup, item `Cc1cccc(NC(=O)c2ccccc2NC(=O)C(C)(C)C)n1`
[reply] -16.5

[ask] # inhibition lookup, item `CC(=O)Nc1ccc(NC(=O)CCCNC(=O)c2ccc(Cl)cc2)cc1`
[reply] 3.88

[ask] # inhibition lookup, item `CCOc1cc(C(=S)N2CCOCC2)ccc1O`
[reply] -8.19

[ask] # inhibition lookup, item `CCn1nnnc1SCC(=O)c1ccc(C)cc1C`
[reply] 77.4

[ask] # inhibition lookup, item `Cc1cccc(C(=O)NCCCN(C)CCCNC(=O)c2cccc(C)c2)c1`
[reply] -6.03

[ask] # inhibition lookup, item `Cc1cccc(NC(=O)COc2ccccc2C)n1`
[reply] 99.9

[ask] # inhibition lookup, item `Nc1ccc(SCCN2C(=O)c3ccccc3C2=O)cc1`
[reply] 85

[ask] # inhibition lookup, item `COc1ccc(S(=O)(=O)NNC(=O)Nc2ccc(C)cc2)c(OC)c1`
[reply] -5.98
